Test system: ACHN renal
test-method-notes: NCI tumour cell line growth inhibition, 48 h
Measured TGI by item
measure: TGI

[[record]]
molecule = "COC(=O)C1Cc2c(OC)ccc(OC)c2C(O)C1C(=O)OC (stereo not drawn)"
measure = "TGI"
result = "> 100 µM"

[[record]]
molecule = "Clc1ccc(/C=C/c2ccc3ccccc3n2)cc1"
measure = "TGI"
result = "> 100 µM"

[[record]]
molecule = "C=C1C(=O)C23[C@H](O)C1CC[C@H]2[C@]12COC3(O)[C@@H](O)[C@@H]1C(C)(C)CC[C@@H]2O"
measure = "TGI"
result = "30.2 µM"

[[record]]
molecule = "N=c1oc2ccccc2cc1-c1nc2ccccc2[nH]1"
measure = "TGI"
result = "45.4 µM"

[[record]]
molecule = "CCOC(=O)C(=CNc1ccc(N(C2=NCC(C)S2)c2ccc(F)c(Cl)c2)cc1)C(=O)OCC (stereo not drawn)"
measure = "TGI"
result = "39.8 µM"

[[record]]
molecule = "Cc1cc(N/N=C/c2nc(-c3ccc(Cl)cc3)oc2C)c2cc(Br)ccc2n1"
measure = "TGI"
result = "5.01 µM"

[[record]]
molecule = "Nc1nccc(NCC2(CO)CC(OCc3ccccc3)C2)n1 (stereo not drawn)"
measure = "TGI"
result = "> 100 µM"

[[record]]
molecule = "COc1cc(/C=C2\\C[C@H]3[C@@H]4CCC5=CC(=O)CC[C@]5(C)[C@H]4CC[C@]3(C)C2=O)cc(OC)c1OC"
measure = "TGI"
result = "> 100 µM"

[[record]]
molecule = "O=[N+]([O-])c1ccc(C2ON=C(c3ccccc3)N2C23CC4CC(CC(C4)C2)C3)cc1 (stereo not drawn)"
measure = "TGI"
result = "> 10 µM"

[[record]]
molecule = "Cc1ccc2nc3n[nH]c(N)c3nc2c1"
measure = "TGI"
result = "> 100 µM"

[[record]]
molecule = "C=C(CN1CCc2c([nH]c3ccccc23)C1)c1ccc(C(=O)Nc2ccccc2N)cc1"
measure = "TGI"
result = "10.4 µM"

[[record]]
molecule = "CC12CCCCC1=C(F)C(F)(F)S2 (stereo not drawn)"
measure = "TGI"
result = "51.6 µM"

[[record]]
molecule = "NC(=O)CSc1c2cc(O)ccc2nc2ccc(O)cc12"
measure = "TGI"
result = "> 10 µM"

[[record]]
molecule = "Cc1nc2ccc(S(=O)(=O)NS(=O)(=O)c3ccc(-c4ccccc4)cc3)cc2c(=O)n1NS(=O)(=O)c1ccc(-c2ccccc2)cc1"
measure = "TGI"
result = "> 100 µM"

[[record]]
molecule = "O=C(N=Nc1ccc(Cl)cc1Cl)NNc1ccc(Cl)cc1Cl"
measure = "TGI"
result = "42.5 µM"

[[record]]
molecule = "Cc1cc(CCl)c(C)cc1CCl"
measure = "TGI"
result = "3.08 µM"

[[record]]
molecule = "CCOP(=O)(OCC)/C(C#N)=C/c1ccccn1"
measure = "TGI"
result = "> 100 µM"

[[record]]
molecule = "C=C1C(=O)O[C@H]2[C@H]1CC/C(Cn1cc(-c3ccc(N)cc3)nn1)=C\\CC[C@@]1(C)O[C@@H]21"
measure = "TGI"
result = "12 µM"

[[record]]
molecule = "COc1ccc(C2=NC(=O)NC2c2ccc(OC)cc2)cc1 (stereo not drawn)"
measure = "TGI"
result = "> 100 µM"

[[record]]
molecule = "CCOC(=O)C1Cc2ccc3c4c(ccc(c24)C1)CC(C(=O)OCC)C3"
measure = "TGI"
result = "> 100 µM"

[[record]]
molecule = "Clc1ccc2c(NCCCCN3OC3c3ccccc3)ccnc2c1 (stereo not drawn)"
measure = "TGI"
result = "22.2 µM"

[[record]]
molecule = "c1ccc(-c2nc3n(c2-c2ccc4c(c2)OCO4)CCC3)nc1"
measure = "TGI"
result = "> 25 µM"

[[record]]
molecule = "COc1ccc(-c2c(C#N)c(N)nc(N3CCOCC3)c2C#N)cc1"
measure = "TGI"
result = "> 100 µM"

[[record]]
molecule = "CN/N=C(/c1nc2ccc([N+](=O)[O-])cc2[nH]c1=O)C(O)c1ccc(C(O)/C(=N\\NC)c2nc3ccc([N+](=O)[O-])cc3[nH]c2=O)cc1 (stereo not drawn)"
measure = "TGI"
result = "> 100 µM"

[[record]]
molecule = "Cc1ccc(O)c(C2=CC3=NNC(=O)C3C(c3cccc(Cl)c3)C2)c1 (stereo not drawn)"
measure = "TGI"
result = "> 100 µM"

[[record]]
molecule = "CC1(C)CO[P@@](=S)(c2ccccn2)O[C@@H]1c1ccccc1"
measure = "TGI"
result = "> 100 µM"

[[record]]
molecule = "CN(C)CCCOc1cccc(NC2=C(Cl)C(=O)C(Nc3cccc(OCCCN(C)C)c3)=C(Cl)C2=O)c1"
measure = "TGI"
result = "3.16 µM"

[[record]]
molecule = "O=C(c1cccs1)c1nccc2c1cnc1ccccc12"
measure = "TGI"
result = "> 100 µM"

[[record]]
molecule = "CCCc1nc(Cl)nc(Cl)c1Cl"
measure = "TGI"
result = "1.62 µM"

[[record]]
molecule = "O=C(NN1C(=O)CSC1c1cccc(Cl)c1)C(O)c1ccccc1 (stereo not drawn)"
measure = "TGI"
result = "> 100 µM"

[[record]]
molecule = "COc1ccc(-c2c(-c3ccccc3)c(C)c3ccccn23)cc1"
measure = "TGI"
result = "> 100 µM"

[[record]]
molecule = "CC(=O)c1ccc2c(c1)N(CCCN1CCN(CCO)CC1)c1ccccc1S2"
measure = "TGI"
result = "11.4 µM"

[[record]]
molecule = "O=c1oc(-c2ccc(O)cc2)cc2cc(O)ccc12"
measure = "TGI"
result = "> 100 µM"

[[record]]
molecule = "CCCN(CCC)c1ccc(C=O)c(Cl)c1"
measure = "TGI"
result = "> 100 µM"

[[record]]
molecule = "COc1ccc(-c2oc3cc(OC)c(OC)c(O)c3c(=O)c2OC)cc1"
measure = "TGI"
result = "> 100 µM"

[[record]]
molecule = "COc1cc(OC)c2sc(-c3ccc(-n4cncc4-c4ccc(OC)c(OC)c4)cc3)nc2c1"
measure = "TGI"
result = "> 100 µM"

[[record]]
molecule = "CCCCc1ccc(-n2sc3ncc(-c4ccccc4)cc3c2=O)cc1"
measure = "TGI"
result = "> 100 µM"

[[record]]
molecule = "CCCC1(CN2c3ccccc3Sc3ccc(Cl)cc32)CCN(CC)C1 (stereo not drawn)"
measure = "TGI"
result = "3.31 µM"

[[record]]
molecule = "C/C(=N\\NC(=S)N1CCC(N2CCCCC2)CC1)c1ccccn1"
measure = "TGI"
result = "5.65 µM"

[[record]]
molecule = "COc1ccc(-c2cnnn2-c2nonc2-n2cccc2)cc1OC"
measure = "TGI"
result = "> 100 µM"

[[record]]
molecule = "COc1cccc(-c2cc(=O)c3cc4c(cc3[nH]2)OCO4)c1"
measure = "TGI"
result = "> 48.2 µM"

[[record]]
molecule = "O=C(O)c1nc2ccc(C(F)(F)F)cc2nc1Nc1ccc(Cl)c(Cl)c1"
measure = "TGI"
result = "49.7 µM"

[[record]]
molecule = "CC(=O)O[C@H]1CC[C@@]2(C)C(=CC[C@@H]3[C@@H]2CC[C@]2(C)c4c(n[nH]c4C)C[C@@H]32)C1"
measure = "TGI"
result = "43.5 µM"

